For each entry below, report its fold change (FC) value.
# ASSAY TARGET: Phosphatidylinositol 4,5-bisphosphate 3-kinase catalytic subunit alpha isoform (Homo sapiens) (UniProt P42336)
# Sequence (P42336 whole entry, canonical isoform): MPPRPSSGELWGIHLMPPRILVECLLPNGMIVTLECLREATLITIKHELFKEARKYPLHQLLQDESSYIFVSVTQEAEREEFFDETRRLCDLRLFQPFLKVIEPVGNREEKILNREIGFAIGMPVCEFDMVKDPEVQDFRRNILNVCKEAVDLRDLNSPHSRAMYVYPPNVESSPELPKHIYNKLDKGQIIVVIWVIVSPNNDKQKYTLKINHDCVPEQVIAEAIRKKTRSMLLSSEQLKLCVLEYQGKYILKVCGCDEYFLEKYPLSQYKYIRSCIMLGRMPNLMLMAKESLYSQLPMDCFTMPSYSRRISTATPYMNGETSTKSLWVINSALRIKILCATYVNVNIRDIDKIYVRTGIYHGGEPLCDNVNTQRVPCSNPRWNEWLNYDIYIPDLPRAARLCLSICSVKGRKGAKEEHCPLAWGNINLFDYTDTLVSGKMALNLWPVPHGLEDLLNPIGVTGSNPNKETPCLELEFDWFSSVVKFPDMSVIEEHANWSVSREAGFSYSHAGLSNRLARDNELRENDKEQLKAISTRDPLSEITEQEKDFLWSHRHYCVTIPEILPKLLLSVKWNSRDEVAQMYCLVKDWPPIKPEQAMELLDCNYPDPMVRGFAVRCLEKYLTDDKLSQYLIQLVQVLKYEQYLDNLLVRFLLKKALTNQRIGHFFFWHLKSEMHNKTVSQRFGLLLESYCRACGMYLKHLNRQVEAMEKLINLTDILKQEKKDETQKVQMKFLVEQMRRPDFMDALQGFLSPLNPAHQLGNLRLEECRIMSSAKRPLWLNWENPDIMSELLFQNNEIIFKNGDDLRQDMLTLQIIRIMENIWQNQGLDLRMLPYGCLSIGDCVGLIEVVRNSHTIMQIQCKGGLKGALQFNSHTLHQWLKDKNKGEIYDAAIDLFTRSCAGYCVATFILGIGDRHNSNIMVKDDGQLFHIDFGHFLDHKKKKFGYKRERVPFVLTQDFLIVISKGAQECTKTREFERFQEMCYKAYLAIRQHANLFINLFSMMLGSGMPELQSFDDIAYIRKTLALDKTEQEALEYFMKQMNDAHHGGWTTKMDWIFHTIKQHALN
# ASSAY NAME: Inhibition of PI3Kalpha in human HCT116 cells relative to LY294002; also: test concentration or dose not given here
# Format: cell-based
# EXPERIMENTAL SETUP: HCT-116
Numbers only.

O=C(Nc1ccccc1)c1c(O)nc2ccccc2c1O: 0.89
O=C(Nc1cccc(F)c1)c1c(O)c2ccc(F)cc2[nH]c1=O: 0.75
O=C(NCc1ccccc1)c1cnc2ccccc2c1: 0.7

Report fold change (FC) for each item below.
1. O=C(NCc1ccccc1)c1cc2ccccc2[nH]c1=O
2. O=C(NCc1ccccc1)c1cnc2ccccc2c1O
3. O=C(Nc1ccccc1F)c1c(O)c2cccc(F)c2[nH]c1=O
4. COc1ccc(NC(=O)c2c(O)c3cc(OC)ccc3[nH]c2=O)cc1

1: 0.14; 2: 0.56; 3: 0.69; 4: 0.82

Please report fold change (FC) for every entry that follows.
1. Cc1ccc(NC(=O)c2c(O)c3cc(C)ccc3[nH]c2=O)cc1
2. O=C(Nc1ccc(F)cc1)c1c(O)c2cc(F)ccc2[nH]c1=O

1: 0.75; 2: 0.65

====

# Test system: Phosphatidylinositol 4,5-bisphosphate 3-kinase catalytic subunit alpha isoform (Homo sapiens), P42336 [H1047R]
# Sequence (P42336 whole entry H1047R, canonical isoform): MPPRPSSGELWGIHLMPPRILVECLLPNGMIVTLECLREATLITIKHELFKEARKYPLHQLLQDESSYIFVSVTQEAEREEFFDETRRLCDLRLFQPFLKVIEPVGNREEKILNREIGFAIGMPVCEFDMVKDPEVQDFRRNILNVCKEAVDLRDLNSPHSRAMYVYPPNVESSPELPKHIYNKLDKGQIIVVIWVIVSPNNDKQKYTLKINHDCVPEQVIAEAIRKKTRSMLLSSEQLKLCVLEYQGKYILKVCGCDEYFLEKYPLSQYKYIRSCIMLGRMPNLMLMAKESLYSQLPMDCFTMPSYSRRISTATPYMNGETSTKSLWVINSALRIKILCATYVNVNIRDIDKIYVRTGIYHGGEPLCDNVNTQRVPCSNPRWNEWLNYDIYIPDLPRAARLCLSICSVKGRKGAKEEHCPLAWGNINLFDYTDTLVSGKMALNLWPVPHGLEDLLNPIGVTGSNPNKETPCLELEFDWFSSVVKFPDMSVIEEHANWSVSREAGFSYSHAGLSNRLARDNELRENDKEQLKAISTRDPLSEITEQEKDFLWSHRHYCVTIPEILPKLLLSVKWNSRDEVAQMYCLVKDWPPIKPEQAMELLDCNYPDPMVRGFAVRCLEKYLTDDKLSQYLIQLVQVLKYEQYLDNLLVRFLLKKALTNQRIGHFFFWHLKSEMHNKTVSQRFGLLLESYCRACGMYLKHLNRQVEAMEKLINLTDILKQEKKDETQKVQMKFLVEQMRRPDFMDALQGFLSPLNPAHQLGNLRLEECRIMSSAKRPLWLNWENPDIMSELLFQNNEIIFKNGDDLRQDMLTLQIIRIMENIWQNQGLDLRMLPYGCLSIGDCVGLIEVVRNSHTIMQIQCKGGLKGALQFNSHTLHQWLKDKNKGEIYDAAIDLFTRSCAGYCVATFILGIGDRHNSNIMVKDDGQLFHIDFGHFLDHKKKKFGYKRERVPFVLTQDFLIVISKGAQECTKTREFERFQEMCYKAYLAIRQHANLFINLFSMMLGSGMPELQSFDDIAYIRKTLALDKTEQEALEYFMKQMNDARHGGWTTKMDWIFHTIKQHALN
# ASSAY NAME: Inhibition of PI3Kalpha H1047R mutant in human HCT116 cells assessed as increase in PARP cleavage relative to LY294002
# Type: cell-based
# EXPERIMENTAL SETUP: HCT-116
MEASURE: fold change (FC)
Numbers only.

Please review the following examples before continuing.
Cc1ccc(NC(=O)c2c(O)c3cc(C)ccc3[nH]c2=O)cc1: 1.14
COc1ccc(NC(=O)c2c(O)c3cc(OC)ccc3[nH]c2=O)cc1: 3.9
O=C(Nc1cccc(F)c1)c1c(O)c2ccc(F)cc2[nH]c1=O: 1.35
O=C(Nc1ccccc1F)c1c(O)c2cccc(F)c2[nH]c1=O: 5.05
O=C(Nc1ccc(F)cc1)c1c(O)c2cc(F)ccc2[nH]c1=O: 1.37

Consider the following items and state reported fold change (FC) for each.
1. O=C(NCc1ccccc1)c1cc2ccccc2[nH]c1=O
2. O=C(Nc1ccccc1)c1c(O)nc2ccccc2c1O
3. O=C(NCc1ccccc1)c1cnc2ccccc2c1O
4. O=C(NCc1ccccc1)c1cnc2ccccc2c1

[0.05, 4.99, 0.2, 0.06]

====

Would you mind telling me the reported fold change (FC) of each entry?
# System: Phosphatidylinositol 4,5-bisphosphate 3-kinase catalytic subunit alpha isoform (Homo sapiens), P42336 [H1047R]
# ASSAY NAME: Inhibition of PI3Kalpha H1047R mutant in human HCT116 cells relative to LY294002
# Type: cell-based
# EXPERIMENTAL SETUP: HCT-116
One number for each entry.

O=C(Nc1ccccc1)c1c(O)nc2ccccc2c1O: 0.71
O=C(NCc1ccccc1)c1cnc2ccccc2c1: 0.87
O=C(NCc1ccccc1)c1cnc2ccccc2c1O: 0.88
O=C(NCc1ccccc1)c1cc2ccccc2[nH]c1=O: 0.8
O=C(Nc1ccc(F)cc1)c1c(O)c2cc(F)ccc2[nH]c1=O: 0.59

Could you report fold change (FC) for every entry in the following list?
1. COc1ccc(NC(=O)c2c(O)c3cc(OC)ccc3[nH]c2=O)cc1
2. O=C(Nc1ccccc1F)c1c(O)c2cccc(F)c2[nH]c1=O
3. Cc1ccc(NC(=O)c2c(O)c3cc(C)ccc3[nH]c2=O)cc1
4. O=C(Nc1cccc(F)c1)c1c(O)c2ccc(F)cc2[nH]c1=O

1. 0.64
2. 0.75
3. 0.79
4. 0.9

====

# ASSAY TARGET: Phosphatidylinositol 4,5-bisphosphate 3-kinase catalytic subunit alpha isoform (Homo sapiens)
# ASSAY NAME: Inhibition of PI3Kalpha in human HCT116 cells assessed as increase in PARP cleavage relative to LY294002
# Format: cell-based
# EXPERIMENTAL SETUP: HCT-116
Kindly state fold change (FC) for each of the entries shown.
Answers are plain numbers.

For each of the compounds below, note its fold change (FC).
1. O=C(Nc1ccc(F)cc1)c1c(O)c2cc(F)ccc2[nH]c1=O
2. O=C(Nc1cccc(F)c1)c1c(O)c2ccc(F)cc2[nH]c1=O

1.01
0.4

For every item in the list below, what is its measured fold change (FC)?
1. Cc1ccc(NC(=O)c2c(O)c3cc(C)ccc3[nH]c2=O)cc1
2. O=C(NCc1ccccc1)c1cc2ccccc2[nH]c1=O
3. O=C(NCc1ccccc1)c1cnc2ccccc2c1O
4. O=C(Nc1ccccc1)c1c(O)nc2ccccc2c1O

[1, 0.92, 0.71, 0.01]

Fill in fold change (FC) for each of the 3 compounds listed.
1. COc1ccc(NC(=O)c2c(O)c3cc(OC)ccc3[nH]c2=O)cc1
2. O=C(NCc1ccccc1)c1cnc2ccccc2c1
3. O=C(Nc1ccccc1F)c1c(O)c2cccc(F)c2[nH]c1=O

0.01
0.81
0.88

====

# Test system: Phosphatidylinositol 4,5-bisphosphate 3-kinase catalytic subunit alpha isoform (Homo sapiens), P42336 [H1047R]
# ASSAY NAME: Inhibition of PI3Kalpha H1047R mutant in human HCT116 cells assessed as inhibition of Akt phosphorylation at S473 residue relative to DMSO
# Type: cell-based
# EXPERIMENTAL SETUP: HCT-116
MEASURE: fold change (FC)
One number for each entry.

Below, each entry is followed by its recorded fold change (FC) result.
O=C(NCc1ccccc1)c1cnc2ccccc2c1: 0.3
O=C(Nc1cccc(F)c1)c1c(O)c2ccc(F)cc2[nH]c1=O: 0.51
O=C(NCc1ccccc1)c1cnc2ccccc2c1O: 0.2

Batch lookup, fold change (FC) per entry.
1. COc1ccc(NC(=O)c2c(O)c3cc(OC)ccc3[nH]c2=O)cc1
2. Cc1ccc(NC(=O)c2c(O)c3cc(C)ccc3[nH]c2=O)cc1
3. O=C(Nc1ccccc1F)c1c(O)c2cccc(F)c2[nH]c1=O

0.44
0.41
1.23

Quick request: fold change (FC) for each listed item, please.
1. O=C(NCc1ccccc1)c1cc2ccccc2[nH]c1=O
2. O=c1cc(N2CCOCC2)oc2c(-c3ccccc3)cccc12
3. O=C(Nc1ccc(F)cc1)c1c(O)c2cc(F)ccc2[nH]c1=O
4. O=C(Nc1ccccc1)c1c(O)nc2ccccc2c1O

[0.13, 0.41, 0.86, 0.4]

====

# ASSAY TARGET: Phosphatidylinositol 4,5-bisphosphate 3-kinase catalytic subunit alpha isoform (Homo sapiens) (UniProt P42336)
# ASSAY NAME: Inhibition of PI3Kalpha in human HCT116 cells assessed as inhibition of Akt phosphorylation at S473 residue relative to DMSO
# Type: cell-based
# EXPERIMENTAL SETUP: HCT-116
MEASURE: fold change (FC)
Answers are plain numbers.

# example entries with known answers
O=C(NCc1ccccc1)c1cnc2ccccc2c1: 1.59
Cc1ccc(NC(=O)c2c(O)c3cc(C)ccc3[nH]c2=O)cc1: 1.66
O=C(Nc1ccccc1)c1c(O)nc2ccccc2c1O: 0.11
O=C(NCc1ccccc1)c1cnc2ccccc2c1O: 1
O=C(Nc1ccccc1F)c1c(O)c2cccc(F)c2[nH]c1=O: 1.6

Dear colleague, could you please provide fold change (FC) for the compounds listed below?
1. O=C(NCc1ccccc1)c1cc2ccccc2[nH]c1=O
2. O=C(Nc1cccc(F)c1)c1c(O)c2ccc(F)cc2[nH]c1=O

[0.09, 1.01]

For every item in the list below, what is its measured fold change (FC)?
1. O=C(Nc1ccc(F)cc1)c1c(O)c2cc(F)ccc2[nH]c1=O
2. O=c1cc(N2CCOCC2)oc2c(-c3ccccc3)cccc12
3. COc1ccc(NC(=O)c2c(O)c3cc(OC)ccc3[nH]c2=O)cc1

0.95
0.01
1.66

====

# Tested on: HCT-116
# ASSAY NAME: Growth inhibition of human HCT116 cells expressing PI3Kalpha H1047R mutant by MTT assay
# Type: functional, cell-based
MEASURE: IC50 (µM)
Numbers only, in µM.

// known answers, use as guide
COc1ccc(NC(=O)c2c(O)c3cc(OC)ccc3[nH]c2=O)cc1: 6.3
O=C(NCc1ccccc1)c1cnc2ccccc2c1: 120
O=C(Nc1ccc(F)cc1)c1c(O)c2cc(F)ccc2[nH]c1=O: 6.9

Working through the 5 compounds below one at a time, give IC50 for each.
1. O=C(Nc1ccccc1F)c1c(O)c2cccc(F)c2[nH]c1=O
2. O=C(Nc1cccc(F)c1)c1c(O)c2ccc(F)cc2[nH]c1=O
3. O=C(NCc1ccccc1)c1cc2ccccc2[nH]c1=O
4. O=C(Nc1ccccc1)c1c(O)nc2ccccc2c1O
5. Cn1c(=O)c(C(=O)Nc2ccccc2)c(O)c2ccccc21

1. 3.6
2. 0.28
3. 330
4. 2.5
5. 100

Dear colleague, could you send me IC50 for each of the items below? Thanks.
1. O=C(NCc1ccccc1)c1cnc2ccccc2c1O
2. Cc1ccc(NC(=O)c2c(O)c3cc(C)ccc3[nH]c2=O)cc1

19
5.6
